- test_target: Protein arginine N-methyltransferase 5 (Homo sapiens)
- Sequence (O14744 whole entry): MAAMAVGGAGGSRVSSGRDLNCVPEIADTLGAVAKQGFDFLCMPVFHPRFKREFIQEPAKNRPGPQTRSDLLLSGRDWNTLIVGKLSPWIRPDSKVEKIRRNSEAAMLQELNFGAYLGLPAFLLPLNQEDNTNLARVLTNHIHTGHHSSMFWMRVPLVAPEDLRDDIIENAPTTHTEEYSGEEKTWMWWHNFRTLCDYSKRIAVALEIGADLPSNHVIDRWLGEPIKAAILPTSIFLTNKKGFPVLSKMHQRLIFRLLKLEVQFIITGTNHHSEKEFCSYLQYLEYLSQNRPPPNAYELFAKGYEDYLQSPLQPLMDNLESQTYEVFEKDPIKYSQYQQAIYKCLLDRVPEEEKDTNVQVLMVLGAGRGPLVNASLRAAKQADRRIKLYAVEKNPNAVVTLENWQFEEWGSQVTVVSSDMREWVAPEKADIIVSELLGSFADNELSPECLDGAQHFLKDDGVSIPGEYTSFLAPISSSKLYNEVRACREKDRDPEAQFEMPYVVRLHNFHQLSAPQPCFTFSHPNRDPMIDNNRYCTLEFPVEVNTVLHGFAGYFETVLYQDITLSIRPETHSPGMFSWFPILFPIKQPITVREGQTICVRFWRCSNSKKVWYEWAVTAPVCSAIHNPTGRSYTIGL
- run_description: Covalent inhibition of human PRMT5 assessed as initial binding constant by LC-MS analysis
observable: Ki (µM)

1) Cc1ccc(NC(=O)[C@@H](C)n2ncc(Cl)c(Cl)c2=O)cc1S(=O)(=O)NCCc1ccccn1: 78

(P) Cc1ccc(NC(=O)Cn2ncc(F)cc2=O)cc1S(=O)(=O)NCCc1ccccn1
(Q) Cc1ccc(NC(=O)[C@H](C)n2ncc(Cl)c(Cl)c2=O)cc1S(=O)(=O)NCCc1ccccn1
(R) Cc1ccc(NC(=O)Cn2ncc(Cl)c(Cl)c2=O)cc1S(=O)(=O)NCCc1ccccn1
(S) Cc1ccc(NC(=O)Cn2ncc(Cl)cc2=O)cc1S(=O)(=O)NCCc1ccccn1
Problem: Rank the 4 molecules: largest Ki first, smallest last. Output the labels ranked as instructed.
Result: P, S, R, Q
